# Assay Info: HPLC stability of solid forms stored at 90% RH and 20-25° C.
# Applied Conditions: 90% RH and 20-25° C., time 0 hours
Metric: HPLC stability data (chromatographic purity) (%)

CNC(=O)c1cnn(-c2nc(N)c3ncn([C@@H]4O[C@H](CO)[C@@H](O)[C@H]4O)c3n2)c1 [Halo Amorphous] : 99.7
CNC(=O)c1cnn(-c2nc(N)c3ncn([C@@H]4O[C@H](CO)[C@@H](O)[C@H]4O)c3n2)c1 [Form A, reference compound] : 99.5

* * *

# Applied Conditions: 96 h
Catalogue of HPLC stability data (chromatographic purity) readings, one per entry.
Metric: HPLC stability data (chromatographic purity) (%)

CNC(=O)c1cnn(-c2nc(N)c3ncn([C@@H]4O[C@H](CO)[C@@H](O)[C@H]4O)c3n2)c1 [Form F] : 99.8
CNC(=O)c1cnn(-c2nc(N)c3ncn([C@@H]4O[C@H](CO)[C@@H](O)[C@H]4O)c3n2)c1 [Form E] : 99.7
CNC(=O)c1cnn(-c2nc(N)c3ncn([C@@H]4O[C@H](CO)[C@@H](O)[C@H]4O)c3n2)c1 [Form G] : 99.8

# credit: patent US10144756B2
